For each record, write down the corresponding Flu intensity.
Species on record: Danio rerio
run.description: Anti osteoporosis activity in prednisone induced wildtype 3 days post-fertilization AB zebrafish osteoporosis model assessed as increase in bone fluorescence intensity (RVB = 13620 +/- 1692)
Format: functional
The response must contain the number and no unit.

Reported Flu intensity ( COc1ccc2cc(C(=O)N3CCC(c4ccc(F)cc4)CC3)oc2c1 ) = 13963

Reported Flu intensity ( COc1ccc2cc(C(=O)N3CCC(C(F)(F)F)CC3)oc2c1 ) = 16975

Reported Flu intensity ( COc1ccc2cc(C(=O)N3CCC(O)CC3)oc2c1 ) = 20648

Reported Flu intensity ( COc1ccc2cc(C(=O)OCCN3CCCC3)oc2c1 ) = 24697

Reported Flu intensity ( COc1ccc2cc(C(=O)NCC(=O)NCCN3CCCC3)oc2c1 ) = 21953

Reported Flu intensity ( COc1ccc2cc(C(=O)N[C@H](C)C(=O)O)oc2c1 ) = 17768

Reported Flu intensity ( COc1ccc2cc(C(=O)OCCN3CCCCC3)oc2c1 ) = 23536

Reported Flu intensity ( COc1ccc2cc(C(=O)NC3CCC(O)CC3)oc2c1 (configuration not stated) ) = 25882

Reported Flu intensity ( COc1ccc2cc(C(=O)NCC(=O)NCCN3CCCCC3)oc2c1 ) = 31141

Reported Flu intensity ( COc1ccc2cc(C(=O)NCCCN(C)C)oc2c1 ) = 18114

Reported Flu intensity ( COc1ccc2cc(C(=O)NCCN3CCNCC3)oc2c1 ) = 21709

Reported Flu intensity ( COc1ccc2cc(C(=O)N[C@@H](C(=O)O)C(C)C)oc2c1 ) = 30880

Taken from ChEMBL document CHEMBL5380777.
